Target: bovine rod CNGA1 channels (Bos taurus, UniProt Q00194)
Sequence (Q00194 1-690): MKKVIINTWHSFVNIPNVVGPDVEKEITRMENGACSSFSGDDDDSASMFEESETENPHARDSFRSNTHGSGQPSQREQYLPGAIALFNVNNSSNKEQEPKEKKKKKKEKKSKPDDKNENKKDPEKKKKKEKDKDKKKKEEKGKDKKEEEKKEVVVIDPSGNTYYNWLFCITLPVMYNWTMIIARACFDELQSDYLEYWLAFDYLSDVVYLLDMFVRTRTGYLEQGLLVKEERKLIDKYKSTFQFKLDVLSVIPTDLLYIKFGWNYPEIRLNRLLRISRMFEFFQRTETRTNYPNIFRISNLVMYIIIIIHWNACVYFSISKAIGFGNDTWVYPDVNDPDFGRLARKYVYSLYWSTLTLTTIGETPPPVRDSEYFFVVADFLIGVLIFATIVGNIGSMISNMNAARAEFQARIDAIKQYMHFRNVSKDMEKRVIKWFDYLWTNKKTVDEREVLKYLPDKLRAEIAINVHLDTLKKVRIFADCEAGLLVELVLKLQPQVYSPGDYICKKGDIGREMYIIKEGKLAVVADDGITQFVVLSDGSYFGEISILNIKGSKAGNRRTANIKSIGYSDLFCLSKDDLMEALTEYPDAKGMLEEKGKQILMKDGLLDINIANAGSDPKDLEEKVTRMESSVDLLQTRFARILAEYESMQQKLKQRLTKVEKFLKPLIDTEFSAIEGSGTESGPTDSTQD
Type: biochemical
Conditions: read-out: average KDc; four different patches
MEASURED_ATTRIBUTE: pKd
Please treat pKd as minus the base-10 logarithm of the molar concentration.

Observed pKd on bovine rod CNGA1 channels (Bos taurus, UniProt Q00194), entry CCCCCCCCCC[N+](CC)(CC)CC [C10-TEA, decyltriethyl ammonium] , equals 5.64
